This collection of values is drawn from patent US20240327535A1.

test system: T1, extracellular domain of rhesus monkey BCMA (rhesus monkey, UniProt F7FFA0 1-53)
T1 construct: extracellular domain; also called RhBCMA
T1 sequence (F7FFA0 entry or part of it): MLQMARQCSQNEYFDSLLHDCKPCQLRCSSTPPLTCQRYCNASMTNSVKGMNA
method notes: Octet BLI; Fab 200 nM
pKd: −log10 of the molar value.
Listing of recorded pKd by entry.

- binder: "AB200-(2Vk44)_R2-VH-v75 (Fab, V domains shown, also called AB200_VH2-75_VK2-44) VH: QVQLVQSGAEVKKPGSSVKVSCKASGGTFSNYWIHWVRQAPGQGLEWMGATYRIQSDTYYNQKYKSRVTITADKSTSTAYMELSSLRSEDTAVYYCARGAVYHGYDVIDNWGQGTLVTVSS VL: DIQMTQSPSSLSASVGDRVTITCRASQSISSYINWYQQKPGKAPKLLIYATSNLQIGVPSRFSGSGSGTDFTLTISSLQPEDFATYYCQQYRRLPWSFGQGTKLEIKR"
  pKd: 8.26
- binder: "AB200-(2Vk31)_R2-VH-v20 (Fab, V domains shown, also called AB200_VH2-20_VK2-31) VH: QVQLVQSGAEVKKPGSSVKVSCKASGGTFSNYWIHWVRQAPGQGLEWMGGTYRSHSDTNYNQKFKSRVTITADKSTSTAYMELSSLRSEDTAVYYCARGAIYHGYDVIENWGQGTLVTVSS VL: DIQMTQSPSSLSASVGDRVTITCRASQSISSYLNWYQQKPGKAPKLLIYATSNLQIGVPSRFSGSGSGTDFTLTISSLQPEDFATYYCQQFRRLPWTFGQGTKLEIKR"
  pKd: 7.10
- binder: "AB200-(2Vk30)_R2-VH-v37 (Fab, V domains shown, also called AB200_VH2-37_VK2-30) VH: QVQLVQSGAEVKKPGSSVKVSCKASGGTFSNYWIHWVRQAPGQGLEWMGATYRSQSDTYYNQKYKSRVTITADKSTSTAYMELSSLRSEDTAVYYCARGAVYHGYDVIDNWGQGTLVTVSS VL: DIQMTQSPSSLSASVGDRVTITCRASQSISSYLNWYQQKPGKAPKLLIYATSNLQIGVPSRFSGSGSGTDFTLTISSLQPEDFATYYCQQYRRIPWTFGQGTKLEIKR"
  pKd: 8.20
- binder: "AB200-(2Vk35)_R2-VH-v6 (Fab, V domains shown, also called AB200_VH2-06_VK2-35) VH: QVQLVQSGAEVKKPGSSVKVSCKASGGTFTNYWIHWVRQAPGQGLEWMGATYRSHSDTYYAQKYKSRVTITADKSTSTAYMELSSLRSEDTAVYYCARGAVYHGYDVIDNWGQGTLVTVSS VL: DIQMTQSPSSLSASVGDRVTITCRASQSISSYINWYQQKPGKAPKLLIYATSNLQSGVPSRFSGSGSGTDFTLTISSLQPEDFATYYCQQYRRIPWTFGQGTKLEIKR"
  pKd: 8.02
- binder: "AB200-(2Vk31)_R2-VH-v3 (Fab, V domains shown, also called AB200_VH2-03_VK2-31) VH: QVQLVQSGAEVKKPGSSVKVSCKASGGTFTNYWIHWVRQAPGQGLEWMGGTYRSHSTTYYNQKFKSRVTITADKSTSTAYMELSSLRSEDTAVYYCARGAVYHGYDVIDNWGQGTLVTVSS VL: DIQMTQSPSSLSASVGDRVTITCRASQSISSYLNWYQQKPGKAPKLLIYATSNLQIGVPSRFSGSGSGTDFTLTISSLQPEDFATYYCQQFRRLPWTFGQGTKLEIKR"
  pKd: 8.30
- binder: "AB200-(2Vk31)_R2-VH-v27 (Fab, V domains shown, also called AB200_VH2-27_VK2-31) VH: QVQLVQSGAEVKKPGSSVKVSCKASGGTFSNYWIHWVRQAPGQGLEWMGATYRSQSTTYYNQKFKSRVTITADKSTSTAYMELSSLRSEDTAVYYCARGAVYHGYDVIDNWGQGTLVTVSS VL: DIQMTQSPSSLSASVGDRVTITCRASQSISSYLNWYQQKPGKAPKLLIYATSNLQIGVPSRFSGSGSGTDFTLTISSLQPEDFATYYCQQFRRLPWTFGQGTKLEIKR"
  pKd: 7.86
